experiment: Single oral dose human plasma pharmacokinetics of D, DA and DOH after Cogni.Q; type: in vivo; conditions: human, plasma, oral, 4 Cogni.Q vegicaps, subject S10 (185 lb); read-out: Cmax
Quantity Kind: Cmax (nM)
Your answer should be a plain number; it is taken to be in nM.

Please review the entries below; each comes with its answer.
C/C=C(/C)C(=O)O[C@H]1Cc2cc3ccc(=O)oc3cc2OC1(C)C [DA, decursinol angelate] : 7
CC(C)=CC(=O)O[C@H]1Cc2cc3ccc(=O)oc3cc2OC1(C)C : 5.7

Looking up CC1(C)Oc2cc3oc(=O)ccc3cc2C[C@@H]1O , I found its Cmax recorded as 1610

---

experiment: Single oral dose human plasma pharmacokinetics of D, DA and DOH after Cogni.Q; type: in vivo; conditions: human, plasma, oral, 4 Cogni.Q vegicaps, subject S1 (115 lb); read-out: Tmax
Quantity Kind: Tmax (h)
Your answer should be a plain number; it is taken to be in h.

Please review the entries below; each comes with its answer.
CC1(C)Oc2cc3oc(=O)ccc3cc2C[C@@H]1O : 3
C/C=C(/C)C(=O)O[C@H]1Cc2cc3ccc(=O)oc3cc2OC1(C)C [DA, decursinol angelate] : 2

Could you now look at the following compound, please?
Looking up CC(C)=CC(=O)O[C@H]1Cc2cc3ccc(=O)oc3cc2OC1(C)C , I found its Tmax recorded as 1

---

Test: Single oral dose human plasma pharmacokinetics of D, DA and DOH after Cogni.Q
Type: in vivo
Conditions: human, plasma, oral, 4 Cogni.Q vegicaps, subject S7 (180 lb); read-out: Terminal t1/2, h (converted)
Procedure: Ten healthy male and 10 female subjects were recruited by public announcement in Amarillo, TX, from January 2013 to April 2013 (see Fig. 1 CONSORT diagram). […] Plasma was prepared by centrifuging the heparinized blood at 1000 g for 15 minutes at room temperature. Urine samples (40mL) were collected within time spans of 0–4, 4–8, 8–12 and 12–24 hours (total volume of urine was recorded). […]
Entries and their measured half-life follow.
Your answer should be a plain number; it is taken to be in h.

Please review the entries below; each comes with its answer.
CC1(C)Oc2cc3oc(=O)ccc3cc2C[C@@H]1O : 6.5
C/C=C(/C)C(=O)O[C@H]1Cc2cc3ccc(=O)oc3cc2OC1(C)C [DA, decursinol angelate] : 17.4

Could you now look at the following compound, please?
Looking up CC(C)=CC(=O)O[C@H]1Cc2cc3ccc(=O)oc3cc2OC1(C)C , I found its half-life recorded as 24.7

---

assay: Single oral dose human plasma pharmacokinetics of D, DA and DOH after Cogni.Q; type: in vivo; conditions: human, plasma, oral, 4 Cogni.Q vegicaps, subject S19 (130 lb); read-out: AUC0-48h
Entries and their measured AUC(0-t) follow.
Your answer should be a plain number; it is taken to be in µM·h.

CC1(C)Oc2cc3oc(=O)ccc3cc2C[C@@H]1O : 21.4

Looking up CC(C)=CC(=O)O[C@H]1Cc2cc3ccc(=O)oc3cc2OC1(C)C , I found its AUC(0-t) recorded as 0.0357

Looking up C/C=C(/C)C(=O)O[C@H]1Cc2cc3ccc(=O)oc3cc2OC1(C)C [DA, decursinol angelate] , I found its AUC(0-t) recorded as 0.0877

---

test: Single oral dose human plasma pharmacokinetics of D, DA and DOH after Cogni.Q; format: in vivo; conditions: human, plasma, oral, 4 Cogni.Q vegicaps, subject S6 (120 lb); read-out: Tmax
Quantity Kind: Tmax
Write your answer as a measured quantity: the number, then the unit.

Please review the entries below; each comes with its answer.
C/C=C(/C)C(=O)O[C@H]1Cc2cc3ccc(=O)oc3cc2OC1(C)C [DA, decursinol angelate] : 3 h
CC1(C)Oc2cc3oc(=O)ccc3cc2C[C@@H]1O [DOH, decursinol] : 4 h

Could you now look at the following compound, please?
Looking up CC(C)=CC(=O)O[C@H]1Cc2cc3ccc(=O)oc3cc2OC1(C)C [D, decursin] , I found its Tmax recorded as 3 h

---

Test: Single oral dose human plasma pharmacokinetics of D, DA and DOH after Cogni.Q
Type: in vivo
Conditions: human, plasma, oral, 4 Cogni.Q vegicaps, subject S11 (178 lb); read-out: AUC0-48h
Description: Ten healthy male and 10 female subjects were recruited by public announcement in Amarillo, TX, from January 2013 to April 2013 (see Fig. 1 CONSORT diagram). […] Plasma was prepared by centrifuging the heparinized blood at 1000 g for 15 minutes at room temperature. Urine samples (40mL) were collected within time spans of 0–4, 4–8, 8–12 and 12–24 hours (total volume of urine was recorded). […]
Entries and their measured AUC(0-t) follow.
Your answer should be a plain number; it is taken to be in µM·h.

CC1(C)Oc2cc3oc(=O)ccc3cc2C[C@@H]1O : 37.3
C/C=C(/C)C(=O)O[C@H]1Cc2cc3ccc(=O)oc3cc2OC1(C)C [DA, decursinol angelate] : 0.168

Looking up CC(C)=CC(=O)O[C@H]1Cc2cc3ccc(=O)oc3cc2OC1(C)C , I found its AUC(0-t) recorded as 0.0147

---

experiment: Single oral dose human plasma pharmacokinetics of D, DA and DOH after Cogni.Q; type: in vivo; details: human, plasma, oral, 4 Cogni.Q vegicaps, subject S9 (158 lb); read-out: Terminal t1/2, h (converted)
Entries and their measured half-life follow.
Your answer should be a plain number; it is taken to be in h.

Please review the entries below; each comes with its answer.
C/C=C(/C)C(=O)O[C@H]1Cc2cc3ccc(=O)oc3cc2OC1(C)C [DA, decursinol angelate] : 19.1
CC(C)=CC(=O)O[C@H]1Cc2cc3ccc(=O)oc3cc2OC1(C)C : 24

Could you now look at the following compound, please?
Looking up CC1(C)Oc2cc3oc(=O)ccc3cc2C[C@@H]1O , I found its half-life recorded as 7.7

---

Entries and their measured AUC(0-t) follow.
Assay: Single oral dose human plasma pharmacokinetics of D, DA and DOH after Cogni.Q
Format: in vivo
Details: human, plasma, oral, 4 Cogni.Q vegicaps, subject S1 (115 lb); read-out: AUC0-48h
Experimental: Ten healthy male and 10 female subjects were recruited by public announcement in Amarillo, TX, from January 2013 to April 2013 (see Fig. 1 CONSORT diagram). […] Plasma was prepared by centrifuging the heparinized blood at 1000 g for 15 minutes at room temperature. Urine samples (40mL) were collected within time spans of 0–4, 4–8, 8–12 and 12–24 hours (total volume of urine was recorded). […]
Your answer should be a plain number; it is taken to be in µM·h.

C/C=C(/C)C(=O)O[C@H]1Cc2cc3ccc(=O)oc3cc2OC1(C)C [DA, decursinol angelate] : 0.19
CC1(C)Oc2cc3oc(=O)ccc3cc2C[C@@H]1O [DOH, decursinol] : 17.6

Looking up CC(C)=CC(=O)O[C@H]1Cc2cc3ccc(=O)oc3cc2OC1(C)C [D, decursin] , I found its AUC(0-t) recorded as 0.045

---

test: Single oral dose human plasma pharmacokinetics of D, DA and DOH after Cogni.Q; format: in vivo; details: human, plasma, oral, subject S16 (175 lb); outlier, excluded from means; read-out: Terminal t1/2, h (converted)
Quantity Kind: half-life (h)
Your answer should be a plain number; it is taken to be in h.

C/C=C(/C)C(=O)O[C@H]1Cc2cc3ccc(=O)oc3cc2OC1(C)C [DA, decursinol angelate] : 190
CC(C)=CC(=O)O[C@H]1Cc2cc3ccc(=O)oc3cc2OC1(C)C : 9.4

Could you now look at the following compound, please?
Looking up CC1(C)Oc2cc3oc(=O)ccc3cc2C[C@@H]1O , I found its half-life recorded as 15

---

Assay: Single oral dose human plasma pharmacokinetics of D, DA and DOH after Cogni.Q
Format: in vivo
Conditions: female, human, plasma, po, Women N = 10; single oral dose Cogni.Q; plasma; read-out: Cmax, nmol/L, Mean (SD)
Protocol: Ten healthy male and 10 female subjects were recruited by public announcement in Amarillo, TX, from January 2013 to April 2013 (see Fig. 1 CONSORT diagram). […] Plasma was prepared by centrifuging the heparinized blood at 1000 g for 15 minutes at room temperature. Urine samples (40mL) were collected within time spans of 0–4, 4–8, 8–12 and 12–24 hours (total volume of urine was recorded). […]
Entries and their measured Cmax follow.
Your answer should be a plain number; it is taken to be in nmol/L.

Please review the entries below; each comes with its answer.
CC1(C)Oc2cc3oc(=O)ccc3cc2C[C@@H]1O : 2610
C/C=C(/C)C(=O)O[C@H]1Cc2cc3ccc(=O)oc3cc2OC1(C)C [DA, decursinol angelate] : 43.9

Looking up CC(C)=CC(=O)O[C@H]1Cc2cc3ccc(=O)oc3cc2OC1(C)C , I found its Cmax recorded as 5.4

---

Test: Single oral dose human plasma pharmacokinetics of D, DA and DOH after Cogni.Q
Type: in vivo
Details: human, plasma, oral, 4 Cogni.Q vegicaps, subject S13 (192 lb); read-out: AUC0-48h
Procedure: Ten healthy male and 10 female subjects were recruited by public announcement in Amarillo, TX, from January 2013 to April 2013 (see Fig. 1 CONSORT diagram). […] Plasma was prepared by centrifuging the heparinized blood at 1000 g for 15 minutes at room temperature. Urine samples (40mL) were collected within time spans of 0–4, 4–8, 8–12 and 12–24 hours (total volume of urine was recorded). […]
Quantity Kind: AUC(0-t) (µM·h)
Your answer should be a plain number; it is taken to be in µM·h.

Please review the entries below; each comes with its answer.
C/C=C(/C)C(=O)O[C@H]1Cc2cc3ccc(=O)oc3cc2OC1(C)C [DA, decursinol angelate] : 0.106
CC(C)=CC(=O)O[C@H]1Cc2cc3ccc(=O)oc3cc2OC1(C)C : 0.0135

Could you now look at the following molecule, please?
Looking up CC1(C)Oc2cc3oc(=O)ccc3cc2C[C@@H]1O , I found its AUC(0-t) recorded as 26.1
